# system: UniProt P19328
# Sequence (P19328 whole entry): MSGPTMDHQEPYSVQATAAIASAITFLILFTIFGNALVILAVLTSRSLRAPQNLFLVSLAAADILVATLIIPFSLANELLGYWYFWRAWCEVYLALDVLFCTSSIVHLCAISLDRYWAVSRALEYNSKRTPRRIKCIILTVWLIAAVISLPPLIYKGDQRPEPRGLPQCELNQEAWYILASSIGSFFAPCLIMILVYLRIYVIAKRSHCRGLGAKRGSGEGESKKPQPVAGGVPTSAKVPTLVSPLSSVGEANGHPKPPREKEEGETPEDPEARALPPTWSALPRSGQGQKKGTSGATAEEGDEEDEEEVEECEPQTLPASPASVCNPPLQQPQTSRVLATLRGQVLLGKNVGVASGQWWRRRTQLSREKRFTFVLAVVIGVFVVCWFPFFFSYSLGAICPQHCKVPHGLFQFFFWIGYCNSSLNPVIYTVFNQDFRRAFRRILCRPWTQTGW
experimentalEndpoint: pKi
Expect pKi as a plain number equal to -log10 of the molar concentration.

q: Name the recorded pKi for CS(=O)(=O)Nc1c(O)ccc2c1CCCC2C1=NCCN1 (stereo not drawn) .
a: 6.61

q: Return reported pKi; argument: CC(=O)Nc1cccc2c1CCCC2c1c[nH]cn1 (stereo not drawn)
a: 5.52
